# Test system: SF-539 CNS
# Assay comment: NCI-60 one-dose screen, 48 h (100 = growth as untreated, 0 = no growth, -100 = all killed)
# Test parameters: 10 µM
This is part of a sample that, as a whole, favours compounds with a hit. Of some 83,000 tested, about 20% had one in any assay.
Documented growth across a set of compounds
Write the value in % as a bare number.

Use these answered entries as a reference point.
>>> print(df.to_string())
                                   compound  experimental_result
0  CCC(=O)N1C/C(=C/c2ccc(Cl)cc2)C(=O)/C(=C/c2ccc(Cl)cc2)C1                -64.7
1  COc1cc(-c2cc(/C=C/C(=O)c3ccc(N)cc3)[nH]n2)cc(OC)c1OC                -64.1
2  COc1cc(Nc2ccnc(NCCNc3ccnc4cc(Cl)ccc34)n2)cc(OC)c1                -65.9
3  CCN1CCC(CCOC)(CN2c3ccccc3Sc3ccc(Cl)cc32)C1 (stereo unspecified)                   78
4              COc1ccccc1/C=C/C(=O)c1ccccc1                   92
5  CCCCCCCCCCCCC1C/C=C\CCCC(=O)O1 (stereo unspecified)                  107

// query Item `COc1ccc2c(c1)O/C(=C\c1ncc([N+](=O)[O-])n1C)C2=O` has what recorded growth?
// result -60.9

// query Item CCN1CCCC1CNC(=O)c1ncc(-c2ccc(C(F)(F)F)cc2)c(NC2CCCCCC2)n1 (stereo unspecified) has what recorded growth?
// result 94.7

// query Item `N#CCCN(NC(=O)OCc1ccccc1)C(=O)OCc1ccccc1` has what recorded growth?
// result 106

// query Item `COc1cccc(Cn2c(-c3nonc3N)nc3ccccc32)c1` has what recorded growth?
// result -34.6

// query Item `Cc1cc(C)c(CCc2cc(C)c(C)cc2C)cc1C` has what recorded growth?
// result 105

====

# Tested on: NCI-H226 lung
# Assay comment: NCI-60 one-dose screen, 48 h (100 = growth as untreated, 0 = no growth, -100 = all killed)
# Test parameters: 10 µM
# Method: Growth inhibition of the NCI-H226 human Non-Small Cell Lung tumor cell line is measured as a screen for anti-cancer activity. Cells are grown in 96 well plates and exposed to the test compound for 48 hours. Compounds are tested at a single concentration, which is 10^-5 M for most compounds. The reported endpoint is percent growth (GI% or GIPRCNT), where numbers from 0 - 100% represent growth inhibition, and numbers from -100% - 0 represent cell death. […]
About 83,000 compounds went through this panel and 20% of them were active in at least one assay; those are over-represented in the sample as a whole.
Classification scheme (growth): LOW (below 50%), MID (50% to below 90%), HIGH (90% or more)

Solved entries:
>>> print(df.to_string())
                                   molecule  class
0    Nc1c(C(=O)Nc2ccccc2)sc2nc3c(cc12)CCCC3    MID
1  C[C@@H]1C=C2C(=O)O[C@@H]3CC[C@H](C1)[C@]23O   HIGH
2  Nc1ncn([C@@H]2O[C@H](CO)[C@@H](O)[C@H]2O)c(=O)n1    LOW
3  COc1cc(/C=C/C(=O)c2ccc(Cl)cc2)ccc1OS(=O)(=O)c1ccc(C)cc1   HIGH

// query Consider `Cc1ccc(C(=O)N2C/C(=C/c3ccc(F)cc3)C(=O)/C(=C/c3ccc(F)cc3)C2)cc1` . To which growth class does it belong?
// result MID

// query Consider `COc1ccc2c(c1)C(=O)c1c-2c(OCCN(C)C)nc2ccccc12` . To which growth class does it belong?
// result LOW

====

# Tested on: NCI-H226 lung
# Assay comment: NCI-60 one-dose screen, 48 h (100 = growth as untreated, 0 = no growth, -100 = all killed)
# Test parameters: 10 µM
# Description: Growth inhibition of the NCI-H226 human Non-Small Cell Lung tumor cell line is measured as a screen for anti-cancer activity. Cells are grown in 96 well plates and exposed to the test compound for 48 hours. Compounds are tested at a single concentration, which is 10^-5 M for most compounds. The reported endpoint is percent growth (GI% or GIPRCNT), where numbers from 0 - 100% represent growth inhibition, and numbers from -100% - 0 represent cell death. […]
Compounds without any hit were thinned out: in the full panel of roughly 83,000, 20% have a hit.
Label rule, in plain words: growth of 90% and up is Met, under 90% is Not met.

Solved entries:
In [3]: df
Out[3]:
                                   compound    class
0  COc1ccc2c(c1)/C(=C\c1c[nH]c3ccc(OC)cc13)C(=O)N2  Not met
1            C/C(=N\Nc1nc2ccccc2s1)c1ccncn1  Not met

// query Please indicate if the recorded growth for `CCCC#CCN(CC)CC` meets or exceeds 90%.
// result Met

// query Please indicate if the recorded growth for `CCCCOC(=O)Oc1ccc(C(=O)Oc2ccc(OCC)cc2)cc1` meets or exceeds 90%.
// result Met

// query Please indicate if the recorded growth for `COc1cc(Nc2ncnc(Nc3ccc4c(n3)NC(=O)C(C)(C)O4)n2)cc(OC)c1OC` meets or exceeds 90%.
// result Not met

// query Please indicate if the recorded growth for `COc1ccc(-c2nn(-c3cccc(NC(=O)c4ccc(Cl)c(Cl)c4)c3)cc2-c2ccncc2)cc1Cl` meets or exceeds 90%.
// result Not met

// query Please indicate if the recorded growth for `COc1cc(Cl)cc(-c2nn(-c3cccc(NC(=O)Nc4ccc(Cl)c(C(F)(F)F)c4)c3)cc2-c2ccncc2)c1` meets or exceeds 90%.
// result Not met

// query Please indicate if the recorded growth for `CNc1ncc(-c2ccc(C(F)(F)F)cc2)c(NC2CCCCCC2)n1` meets or exceeds 90%.
// result Not met

// query Please indicate if the recorded growth for `CC(=O)CSC(C)=O` meets or exceeds 90%.
// result Met

// query Please indicate if the recorded growth for `CC(C)(C#N)Nc1ccccc1` meets or exceeds 90%.
// result Met

// query Please indicate if the recorded growth for `Cc1ccc(-c2n[nH]c(=O)c3noc(-c4ccc(C)cc4)c23)cc1` meets or exceeds 90%.
// result Not met

// query Please indicate if the recorded growth for Cc1[nH]nc2c1C(c1cnn(C)c1)C(C#N)=C(N)O2 (stereo not drawn) meets or exceeds 90%.
// result Met

// query Please indicate if the recorded growth for `COc1cc(Nc2ccnc(NCCNc3ccnc4cc(Cl)ccc34)n2)cc(OC)c1` meets or exceeds 90%.
// result Not met

// query Please indicate if the recorded growth for `O=C1N=NC2=C1c1c3ccccc3c(O)n1CC2` meets or exceeds 90%.
// result Met

====

# Tested on: SK-MEL-2 melanoma
# Assay comment: NCI-60 one-dose screen, 48 h
# Test parameters: 10 µM
Compounds without any hit were thinned out: in the full panel of roughly 83,000, 20% have a hit. Activity calls are given as the source filed them. Rule for the calls: active = growth percent below 10; inactive = the rest.
Allowed answers: active, inactive

Solved entries:
Compound	Class
Cc1ccc(-c2nc(/C=C3/C(=O)N(C)c4ccc(F)cc43)c3ccccn23)cc1	inactive
c1ccc(CO[C@H]2CO[C@H]3[C@@H]2OC[C@H]3OCc2ccccc2)cc1	inactive
O=C(Nc1ccc(Cl)cc1)N1NC(c2ccc(Cl)cc2)C=C1c1ccccc1 (centres undefined)	inactive
CO/N=C(/C(=O)NC1C(=O)N2C(C(=O)O)=C(COC(N)=O)CSC12)c1ccco1 (centres undefined)	inactive

Next item in the queue.
// query Record request — test call for `COc1ccc(-c2ccc(-c3ccc(C(=N)N)cn3)o2)cc1`
// result inactive

====

# Test system: HCT-15 colon
# Assay comment: NCI-60 one-dose screen, 48 h (100 = growth as untreated, 0 = no growth, -100 = all killed)
# Test parameters: 10 µM
# Method: Growth inhibition of the HCT-15 human tumor cell line is measured as a screen for anti-cancer activity. Cells are grown in 96 well plates and exposed to the test compound for 48 hours. Compounds are tested at a single concentration, which is 10^-5 M for most compounds. The reported endpoint is percent growth (GI% or GIPRCNT), where numbers from 0 - 100% represent growth inhibition, and numbers from -100% - 0 represent cell death. For example, a value of 40 represents 60% growth inhibition. […]
About 83,000 compounds went through this panel and 20% of them were active in at least one assay; those are over-represented in the sample as a whole.
Measurement label: growth (%)
Write the value in % as a bare number.

Use these answered entries as a reference point.
>>> df
                               query_smiles  experimental_result
0  CC/C(=C(/c1ccc(OCCN(C)C)cc1)c1ccc(OC(=O)CCCCC(=O)c2c(C)[nH]c(/C=C3\N=C(c4ccc[nH]4)C=C3OC)c2C)cc1)c1ccccc1                 27.1
1  Cn1c(C(N)=O)cc2c1-c1nc(Nc3ccccc3)ncc1CCC2                 34.6
2  O=C(Nc1cccc(-n2cc(-c3ccncc3)c(-c3ccc(O)c(Cl)c3)n2)c1)Nc1ccc(Cl)c(Cl)c1                 14.1
3          CCN(CC)CCNC(=O)c1ccc(NC(C)=O)cc1                  101

Now, please, on to the next compound.
// query Item `O=C(CCCCC[P+](c1ccccc1)(c1ccccc1)c1ccccc1)NC(COC(=O)C(Cl)Cl)(COC(=O)C(Cl)Cl)COC(=O)C(Cl)Cl` has what recorded growth?
// result 99
